Biological target: T1, SLFN5 1-336 (Schlafen core domain) (Homo sapiens, UniProt Q08AF3 1-336)
T1 sequence: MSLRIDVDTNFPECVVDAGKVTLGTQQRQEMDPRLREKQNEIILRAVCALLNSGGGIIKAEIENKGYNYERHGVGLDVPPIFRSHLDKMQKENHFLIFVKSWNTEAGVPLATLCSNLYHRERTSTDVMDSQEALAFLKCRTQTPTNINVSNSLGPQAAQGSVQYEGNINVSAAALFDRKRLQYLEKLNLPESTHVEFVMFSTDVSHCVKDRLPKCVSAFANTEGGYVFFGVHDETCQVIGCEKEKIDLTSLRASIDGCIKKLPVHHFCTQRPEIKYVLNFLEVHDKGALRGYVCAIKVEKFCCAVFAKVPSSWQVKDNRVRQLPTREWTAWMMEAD
Assay: fluorescence anisotropy; FA: 2x buffer 100 mM HEPES pH 8.0, 100 mM NaCl mixed 1:1 with 100 nM (final) FAM ligand, 30 min on ice; EMSA: 25 mM HEPES pH 7.0, 60 mM NaCl, 5% glycerol, 2 mM
Settings: protein: recombinant; tags: C-terminal His6; label: 5'-FAM; tRNA fold
experimental-endpoint: pKd
One number for each entry, as −log10 of the molar value.

Challenge: Which value of pKd has been reported for tRNA(Ser) (structured_RNA) RNA: GUAGUCGUGGCCGAGUGGUUAAGGCGAUGGACUUGAAAUCCAUUGUGGUUUCCCCGCGCAGGUUCGAAUCCUGCCGACUACGCCA in the records?
Response given: 5.37
